Data credit: patent US20110136792A1

# Tested on: glycogen synthase
# method notes: Glycogen Synthase (GS) Assay
# Type: biochemical
# assay setup: compound concentration needed to give 50% maximum activation; coupled pyruvate kinase/lactate dehydrogenase assay, absorbance at 340 nm
property name: log10(EC50) (log10 of the value in nM)

>  <compound>
O=C(O)C1CCS(=O)(=O)N1Cc1cc(COc2ccc(-c3ccc(F)cc3F)cc2)ccc1F (centres unmarked) [Example 42]

>  <measured target>
glycogen synthase

>  <log10(EC50)>
2.26

$$$$
>  <compound>
O=C(O)[C@@H]1CCS(=O)(=O)N1Cc1csc(COc2ccc(-c3cc(F)c(F)cc3F)cc2)n1 [Example 60]

>  <measured target>
glycogen synthase

>  <log10(EC50)>
3.34

$$$$
>  <compound>
CCN(CC(=O)O)Cc1cccc(COc2ccc(-c3cc(F)c(F)cc3OC)cc2)c1 [Example 36]

>  <measured target>
glycogen synthase

>  <log10(EC50)>
3.29

$$$$
>  <compound>
COc1cc(F)c(F)cc1-c1ccc(OCc2cccc(CN(CC(=O)O)C(=O)CC(C)C)c2)cc1 [Example 2]

>  <measured target>
glycogen synthase

>  <log10(EC50)>
3.03

$$$$
>  <compound>
Cc1cc(F)c(F)cc1-c1ccc(OCc2cccc(CN3[C@@H](C(=O)O)CCS3(=O)=O)c2)cc1 [Example 49]

>  <measured target>
glycogen synthase

>  <log10(EC50)>
2.95

$$$$
>  <compound>
COc1cc(F)c(F)cc1-c1ccc(OCc2cccc(CN(CC(=O)O)S(C)(=O)=O)c2)cc1 [Example 10]

>  <measured target>
glycogen synthase

>  <log10(EC50)>
2.46

$$$$
>  <compound>
COc1cc(F)c(F)cc1-c1ccc(OCc2cccc(CN(CC(=O)O)C(=O)C3CCC3)c2)cc1 [Example 4]

>  <measured target>
glycogen synthase

>  <log10(EC50)>
2.86

$$$$
>  <compound>
COc1cc(F)c(F)cc1-c1ccc(OCc2cccc(CN3[C@@H](C(=O)O)CCS3(=O)=O)c2)cc1 [Example 44]

>  <measured target>
glycogen synthase

>  <log10(EC50)>
2.58

$$$$

###

# System: glycogen synthase
# method notes: Glycogen Synthase (GS) Assay
# Assay type: biochemical
# assay setup: compound concentration needed to give 50% maximum activation; coupled pyruvate kinase/lactate dehydrogenase assay, absorbance at 340 nm
Classify by EC50. Ranges: Low: < 500 nM; Mid: ≥ 500 nM and < 700 nM; High: ≥ 700 nM

>  <molecule>
COCC(C)C(=O)N(CC(=O)O)Cc1cccc(COc2ccc(-c3cc(F)c(F)cc3OC)cc2)c1 (stereo not shown) [Example 31]

>  <class>
Low

$$$$
>  <molecule>
COc1cc(F)c(F)cc1-c1ccc(OCc2cccc(CN(CC(=O)O)C(=O)CC3CC3)c2)cc1 [Example 24]

>  <class>
High

$$$$
>  <molecule>
O=C(O)[C@H]1CCS(=O)(=O)N1Cc1csc(COc2ccc(-c3cc(F)c(F)cc3F)cc2)n1 [Example 59]

>  <class>
High

$$$$
>  <molecule>
COc1cc(F)c(F)cc1-c1ccc(OCc2nc(CN3[C@@H](C(=O)O)CCS3(=O)=O)cs2)cc1 [Example 61]

>  <class>
High

$$$$
>  <molecule>
COc1cc(F)c(F)cc1-c1ccc(OCc2cccc(CN(CC(=O)O)C(=O)C3CCN(C)CC3)c2)cc1 [Example 32]

>  <class>
Mid

$$$$
>  <molecule>
Cc1cc(F)c(F)cc1-c1ccc(OCc2cccc(CN3C(C(=O)O)CCS3(=O)=O)c2)cc1 (racemic) [Example 39]

>  <class>
Low

$$$$
>  <molecule>
COc1cc(F)c(F)cc1-c1ccc(OCc2cccc(CN(CC(=O)O)C(=O)C3CC3)c2)cc1 [Example 22]

>  <class>
Low

$$$$
>  <molecule>
COc1cc(F)c(F)cc1-c1ccc(OCc2cccc(CN(CC(=O)O)C(=O)c3cscn3)c2)cc1 [Example 27]

>  <class>
Mid

$$$$
>  <molecule>
COCC(C)C(=O)N(CC(=O)O)Cc1cccc(COc2ccc(-c3ccc(F)cc3F)cc2)c1 (stereo not shown) [Example 17]

>  <class>
High

$$$$
>  <molecule>
COCC(=O)N(CC(=O)O)Cc1cccc(COc2ccc(-c3cc(F)c(F)cc3OC)cc2)c1 [Example 28]

>  <class>
Low

$$$$
